The origin of these recorded values is ChEMBL document CHEMBL3046774.

# Tested on: Leptinotarsa decemlineata
# experimental_details: Antifeeding activity against Leptinotarsa decemlineata larvaes in compound treated wheat wafer disk assessed as total coefficient of deterrence by feeding deterrent activity test
# Type: functional
For each entry below, report its FDI value.
One number for each entry.

Look at each compound and report its FDI.
1. COc1ccc2c(c1)OC(C)(C)C(CC(=O)O)=C2
2. COc1ccc2c(c1)OC(C)(C)C1=C2OC(=O)C1
3. COc1cc2c(cc1OC)[C@@H]1OC(=O)C[C@]1(I)C(C)(C)O2 (racemic)
4. COc1cc2c(cc1OC)C1=C(CC(=O)O1)C(C)(C)O2
5. COc1cc2c(cc1OC)OC(C)(C)C=C2

Reply text:
1. 98.8
2. 76.7
3. 132
4. 95.2
5. 124.1

Count: 3. Required value per item: FDI.
1. COc1cc2c(cc1OC)OC(C)(C)C(CC(=O)O)=C2
2. COc1ccc2c(c1)OC(C)(C)C=C2
3. COc1ccc2c(c1)OC(C)(C)[C@@]1(I)CC(=O)O[C@@H]21 (racemic)

Reply text:
[96.3, 164.6, 134.1]
